Each recorded value in this set is attributed to patent US20120148607A1.

Molecular target: T1, Decoy c-Met (extracellular domain of human c-Met) (human, UniProt P08581 25-932)
T1 construct: extracellular domain; also called Decoy Met; monomeric Decoy Met
T1 sequence (P08581 25-932): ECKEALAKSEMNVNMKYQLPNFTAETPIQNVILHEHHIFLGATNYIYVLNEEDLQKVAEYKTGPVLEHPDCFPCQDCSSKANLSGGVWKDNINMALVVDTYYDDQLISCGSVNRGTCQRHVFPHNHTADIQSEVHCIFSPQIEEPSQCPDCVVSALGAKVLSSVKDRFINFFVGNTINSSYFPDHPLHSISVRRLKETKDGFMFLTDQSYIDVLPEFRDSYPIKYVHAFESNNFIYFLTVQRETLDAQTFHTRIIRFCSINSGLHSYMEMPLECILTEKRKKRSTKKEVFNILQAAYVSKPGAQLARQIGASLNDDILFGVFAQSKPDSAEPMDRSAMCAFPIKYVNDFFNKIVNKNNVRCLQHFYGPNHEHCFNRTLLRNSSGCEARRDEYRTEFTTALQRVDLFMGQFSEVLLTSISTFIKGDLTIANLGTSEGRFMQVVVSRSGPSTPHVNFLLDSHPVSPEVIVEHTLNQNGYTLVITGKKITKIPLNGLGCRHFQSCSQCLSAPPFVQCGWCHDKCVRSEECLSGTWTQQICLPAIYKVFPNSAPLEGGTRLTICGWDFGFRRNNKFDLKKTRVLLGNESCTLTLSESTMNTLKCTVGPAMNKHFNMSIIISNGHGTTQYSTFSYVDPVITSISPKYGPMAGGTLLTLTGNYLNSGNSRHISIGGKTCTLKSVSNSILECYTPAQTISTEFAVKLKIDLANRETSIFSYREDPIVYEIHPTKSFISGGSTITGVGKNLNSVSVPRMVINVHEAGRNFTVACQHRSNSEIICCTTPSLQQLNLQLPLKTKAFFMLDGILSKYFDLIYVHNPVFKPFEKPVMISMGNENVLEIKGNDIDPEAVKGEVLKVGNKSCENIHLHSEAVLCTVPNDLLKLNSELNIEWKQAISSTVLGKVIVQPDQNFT
Assay: binding ELISA, human c-Met (Decoy)
Test readout: EC50 (nM)
State just the number; it will be interpreted in nM.

Completed entries (count: 3):
13E6 mAb (antibody, V domains shown) VH: QVQLQESGGDLVQPGGSLRLSCAASGFTFDDYVMNWVRQAPGKGLEWISAINWNGGSTYYAESMKGRFTISRDNAKNTLYLQMYSLQSDDTAVYYCVKDTVVSGNGYWGQGTQVTVSS VL: QSVLTQPPSVSGTLGKTVTISCAGTSSDIGDYNYVSWYQQLPGTAPKLLIYDVNKRASGIPDRFSGSKSGNTASLSISGLQSEDEADYYCASYRSRNDYAFGGGTKLTVL; 0.19
12G4 mAb (antibody, V domains shown) VH: QLQLVESGGGMAQPGGSLKLSCAASGFTFDDYAMTWVRQAPGKGLEWLSTISWNDINTYYAESMKDRFTISRDNAKNTLYLQMNSLESEDTAVYYCAKRRDNYYGTSGEYDYWGQGTQVTVSS VL: QSALTQPPSVSGTLGKTVTISCAGTSSDIGNYNYVSWYQQLPGTAPKLLIYEVNKRPSGIPDRFSGSKSGNTASLSISGLQSEDEADYYCASYRSSNNVVFGGGTKLTVL; 0.42
40B8 mAb (antibody, V domains shown) VH: EVQLVQPGAELRNPGASVKVSCKASGYTFTNYVIDWVRQAPGQGLEWMGRIDPENGGTRYAQKFQGRVTFTADTSTSTAYVELSNLRSEDTAVYYCARLEDYELAYDYWGQGTQVTVSS VL: DIVMTQTPSSVTASAGEKVTINCKSSQSVLLSSNQKNYLAWYQQRLGQSPRLLIYWASTRESGVPDRFSGSGSTTDFTLTISSFQPEDAAVYYCQQGVSFPLTFGQGTKVELK; 0.14

Note: attention shifts to another entry.
Query (binder): 36C4 mAb (antibody, V domains shown, also called SIMPLE antibody 36C4) VH: QVQLVESGPGLVKPSQTLSLTCAVSGGSITTNYYYWSWIRQSPGKGLEWMGVIAYDGSTDYSPSLKSRTSISRDTSKNQFSLQLSSVTPEDTAVYYCARDVRVIATGWATANALDAWGQGTLVTVSS VL: QSVLTQPPSVSGSPGKTVTISCAGTSSDVGYGNYVSWYQQLPGTAPKLLIFAVSYRASGIPDRFSGSKSGNTAFLTISGLQSEDEADYYCASYRSSNNAAVFGGGTHLTVL ; field requested: EC50 0.13
